# assayRemarks: DMPC liposome clearance by lipid-free apolipoproteins (A325)
# Assay type: biochemical
# measurementConditions: lipid-free apolipoprotein, protein:lipid 1:75, A325 over 90 minutes
# Protocol: To assess the ability of lipid-free apolipoproteins to remodel DMPC liposomes, aliquots of purified polypeptide were allowed to thaw at 2-8° C. Aqueous 0.5 M tris(2-carboxyethyl)phosphine (TCEP) solution was then added to the polypeptide solution (1.5 μL per 200 μg polypeptide) to reduce any disulfide bonds that formed during storage. […] After buffer exchange, the concentration of the polypeptide was determined by measuring the sample's absorbance at 280 nm (A280). […]

molecule	Rate of DMPC clearance Ka, s⁻¹
PP129: novel truncated apolipoprotein variant SEQ ID NO: 881 (protein) KVEQAVETEPEPELRQQTEWQSGQRWELALGRFWDYLRWVQTLSEQVQEELLSSQVTQELRALMDETMKELKAYKSELEEQLTPVAEETRARLSKELQAAQARLGADMEDVCGRLVQYRGEVQAMLGQSTEELRVSLASHLRKLRKRLLRDADDLQKRLAVYQAGAREGAERGLSAIRERLGDRLDEVKEQEAAKLEEQAQQIRLQAEAFQARLKPLVEDMQRQWAGQVEKVQAAVGTSAAPVPSDNH	0.0068
